target: PD-1/PD-L1 interaction (Homo sapiens, UniProt Q9NZQ7); construct: expressed in transfected cells; host or cells: CHO cells (aAPC-PD-L1) co-cultured with Jurkat cells overexpressing PD-1 and an NFAT-luciferase reporter; assay: PD-1/PD-L1 NFAT reporter co-culture assay; format: cell-based; details: Jurkat PD-1 NFAT-luciferase cells co-cultured with aAPC-PD-L1 CHO cells, 6 hrs at 37° C.; read-out: EC50 NFAT Luciferase
Sequence (Q9NZQ7 19-290): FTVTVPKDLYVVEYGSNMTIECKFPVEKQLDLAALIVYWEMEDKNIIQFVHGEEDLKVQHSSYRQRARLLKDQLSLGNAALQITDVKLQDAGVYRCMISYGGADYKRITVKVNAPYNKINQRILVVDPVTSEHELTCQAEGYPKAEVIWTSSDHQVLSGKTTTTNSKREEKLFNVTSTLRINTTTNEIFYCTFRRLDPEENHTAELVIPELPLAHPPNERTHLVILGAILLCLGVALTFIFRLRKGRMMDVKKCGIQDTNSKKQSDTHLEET
Quick list: EC50 per entry.
experimentalEndpoint: EC50 (nM)

1) COc1nc(-c2cccc(-c3cccc4c3CC[C@@H]4Oc3nc(OC)c(CN4CCCC(O)(C(=O)O)C4)cc3Cl)c2Cl)ccc1CNC[C@@H]1CCC(=O)N1 (stereo partly drawn)    18
2) COc1cc(OCc2cccc(-c3cccc(COc4cc(OCc5cncc(C#N)c5)c(CNCC(=O)O)cc4Cl)c3C)c2C)c(Cl)cc1CNCC(=O)O    589
3) COc1nc(O[C@H]2CCc3c(-c4cccc(-c5ccc(CNC[C@@H]6CCC(=O)N6)cc5)c4Cl)cccc32)c(Cl)cc1CN[C@@H]1CCC[C@@H]1O    484
4) COc1cc(OCc2cccc(-c3cccc(COc4cc(OCc5cncc(C#N)c5)c(CNC[C@@H](O)CC(=O)O)cc4Cl)c3C)c2C)c(Cl)cc1CNCC(=O)NS(C)(=O)=O    712
5) COc1nc(-c2cccc(-c3cccc4c3CC[C@@H]4Oc3nc(OC)c(CN4CCC[C@@H](C(=O)O)C4)cc3Cl)c2Cl)ccc1CNC[C@@H]1CCC(=O)N1    29
6) COc1nc(-c2cccc(-c3cccc(-c4ccc5c(c4)C[C@@H](N)C5)c3Cl)c2Cl)ccc1CN1CC2(CCC(=O)N2)C1    484

* * *

Catalogue of pEC50 readings, one per entry.
molecular target: PD-1/PD-L1 interaction (Homo sapiens, UniProt Q9NZQ7); construct: expressed in transfected cells; host or cells: CHO cells (aAPC-PD-L1) co-cultured with Jurkat cells overexpressing PD-1 and an NFAT-luciferase reporter; experiment: PD-1/PD-L1 NFAT reporter co-culture assay; assay type: cell-based; settings: Jurkat PD-1 NFAT-luciferase cells co-cultured with aAPC-PD-L1 CHO cells, 6 hrs at 37° C.; read-out: EC50 NFAT Luciferase
pEC50: −log10 of the molar value.
experimentalEndpoint: pEC50

1) N#Cc1cncc(COc2cc(C(=O)N3CCc4c(-c5cccc6c5CCN6C(=O)c5ccc(CNC[C@@H](O)CC(=O)O)c(OCc6cncc(C#N)c6)c5)cccc43)ccc2CNC[C@@H](O)CC(=O)O)c1    5.07
2) Cc1c(COc2nc(OC[C@H]3CCC(=O)N3)c(CNCC(=O)O)cc2Br)cccc1-c1cccc(COc2nc(OC[C@H]3CCC(=O)N3)c(CNCC(=O)O)cc2Br)c1C    6.70
3) Cc1c(COc2cc(OCc3cncc(C#N)c3)c(CN[C@](C)(CO)C(=O)O)cc2Cl)cccc1-c1cccc(-c2ccc(OC3CN4CCC3CC4)cc2)c1C (some centres unmarked)    6.55

* * *

target: PD-1/PD-L1 (Homo sapiens, UniProt Q9NZQ7); test: PD-1/PD-L1 biochemical protein-protein interaction assay (ALPHA); conditions: 0.3 nM His tagged PD-L1, 2.5 nM biotinylated Fc-PD-1, 60 minutes at 25° C., read-out: IC50 PD-L1-PD-1 Alpha IC50-mono PD-L1-fcP-D1
Sequence (Q9NZQ7 19-238 limits assumed): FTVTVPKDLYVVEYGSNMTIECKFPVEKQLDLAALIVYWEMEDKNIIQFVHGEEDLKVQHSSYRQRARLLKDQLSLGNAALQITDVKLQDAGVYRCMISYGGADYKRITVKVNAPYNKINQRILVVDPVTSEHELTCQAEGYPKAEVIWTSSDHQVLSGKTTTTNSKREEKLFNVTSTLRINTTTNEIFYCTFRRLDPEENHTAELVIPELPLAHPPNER
experimentalEndpoint: log10 of IC50 (log10 of the value in pM)

1) COc1nc(-c2csc(-c3cccc(-c4ccc(CNC[C@@H]5CCC(=O)N5)c(OC)n4)c3Cl)c2)ccc1CNC[C@@H]1CCC(=O)N1 [Example 597]    3.10
2) Cc1c(COc2cc(OCc3cncc(C#N)c3)c(CN[C@@](C)(CO)C(=O)O)cc2Cl)cccc1-c1cccc(-c2ccc(OCCNC[C@@H]3CCC(=O)N3)cc2)c1C [Example 517]    1.81
3) Cc1c(COc2nc(OCc3cc(C#N)cc(C#N)c3)c(CNC(C)(CO)C(=O)O)cc2Cl)cccc1-c1cccc(-c2ccc(OCCNCCO)cc2)c1C (centres unmarked) [Example 471]    2.31
4) N#CCOc1cc(-c2cccc(-c3cccc(-c4ccc(CNC[C@@H]5CCC(=O)N5)c(OCC#N)c4)c3Cl)c2Cl)ccc1CNC[C@@H]1CCC(=O)N1 [Example 463]    2.20
5) Cc1c(COc2cc(OCc3cncc(C#N)c3)c(CN[C@@](C)(CO)C(=O)O)cc2Cl)cccc1-c1cccc(-c2ccc(CN3CC4(CCC(=O)N4)C3)cc2)c1C [Example 579]    1.81
6) Cc1c(COc2cc(O)c(CNC[C@@H](F)C(C)(C)O)cc2Cl)cccc1-c1cccc(COc2cc(OCc3cncc(C#N)c3)c(CNC[C@@H](F)C(C)(C)O)cc2Cl)c1C [Example 277]    5.10
7) COc1nc(O[C@H]2CCc3c(-c4cccc(-c5ccc(C6=NCCN6)c(OC)n5)c4Cl)cccc32)c(Br)cc1CNC(C)(C)C(=O)O [Example 786]    1.81
8) Cc1c(COc2cc(OCc3cncc(C#N)c3)c(CN[C@@H]3CCC[C@@H]3O)cc2Cl)cccc1-c1cccc(-c2ccc(CN3CC(CC(=O)O)C3)cc2)c1C [Example 368]    3.27
9) COc1nc(O[C@H]2CCc3c(-c4cccc(-c5cnc6c(CNC[C@@H]7CCC(=O)N7)cn(C)c6n5)c4Cl)cccc32)c(Cl)cc1CN1CCC[C@@H](C(=O)O)C1 [Example 526]    1.81
10) COc1cc(OCc2cccc(-c3cccc(COc4cc(OC)c(CNC[C@@H](O)CC(=O)O)cc4C#N)c3C)c2C)c(C#N)cc1CNC[C@@H](O)CC(=O)O [Example 523]    2.47
11) COc1nc(O[C@H]2CCc3c(-c4cccc(-c5ccc6c(c5)C[C@@H](N)C6)c4Cl)cccc32)ccc1CN[C@@](C)(CO)C(=O)O [Example 783]    2.41

* * *

molecular target: PD-1/PD-L1 (Homo sapiens); experiment: PD-1/PD-L1 biochemical protein-protein interaction assay (ALPHA); conditions: 0.3 nM His tagged PD-L1, 2.5 nM biotinylated Fc-PD-1, 60 minutes at 25° C., read-out: IC50 PD-L1-PD-1 Alpha IC50-mono PD-L1-fcP-D1
// reported IC50 per item
experimentalEndpoint: IC50

1. Cc1c(COc2nc(OCc3cncc(C#N)c3)c(CN[C@@](C)(CO)C(=O)O)cc2Cl)cccc1-c1cccc(-c2ccc(OCCNCCO)cc2)c1C    0.182 nM
2. Cc1c(COc2nc(OCc3cncnc3)c(CNC[C@@H](O)CC(=O)O)cc2Br)cccc1-c1cccc(COc2nc(OCc3cncnc3)c(CNC[C@@H](O)CC(=O)O)cc2Br)c1C    0.1 nM
3. Cc1c(COc2cc(OCc3cncc(C#N)c3)c(CNC[C@@H](O)CC(=O)O)cc2Cl)cccc1-c1cccc(-c2nc3ccc(CNC[C@@H](O)CC(=O)O)cc3o2)c1C    0.095 nM
4. COc1nc(-c2cccc(-c3cccc(-c4ccc5c(CNC[C@@H]6CCC(=O)N6)cccc5c4)c3Cl)c2Cl)ccc1CNC[C@@H]1CCC(=O)N1    4.87 nM
5. COc1nc(O[C@H]2CCc3c(-c4cccc5c4CC[C@@H]5Oc4nc(OC)c(CN[C@@](C)(CO)C(=O)O)cc4Br)cccc32)c(Br)cc1CN[C@@](C)(CO)C(=O)O    0.1 nM

* * *

Below is a list of entries, each paired with its recorded EC50 value.
biological target: PD-1/PD-L1 interaction (Homo sapiens, UniProt Q9NZQ7); construct: expressed in transfected cells; host or cells: CHO cells (aAPC-PD-L1) co-cultured with Jurkat cells overexpressing PD-1 and an NFAT-luciferase reporter; test: PD-1/PD-L1 NFAT reporter co-culture assay; type: cell-based; details: Jurkat PD-1 NFAT-luciferase cells co-cultured with aAPC-PD-L1 CHO cells, 6 hrs at 37° C.; read-out: EC50 NFAT Luciferase
experimentalEndpoint: EC50 (nM)

1. COc1nc(OCc2cccc(-c3cccc(COc4nc(OC)c(CN[C@@H]5CCC[C@H]5C(=O)O)cc4Cl)c3C)c2C)c(Cl)cc1CN[C@@H]1CCC[C@H]1C(=O)O [Example 75]    384
2. C[C@@](CO)(NCc1cc(Cl)c(O[C@H]2CCc3c(-c4cccc5c4CC[C@@H]5Oc4nc(OCc5cc(C#N)cc(C#N)c5)c(CN[C@@](C)(CO)C(=O)O)cc4Cl)cccc32)nc1OCc1cc(C#N)cc(C#N)c1)C(=O)O [Example 686]    46
3. Cc1c(COc2cc(OCc3cncc(C#N)c3)c(CNC[C@@H](O)CC(=O)O)cc2Cl)cccc1-c1cccc(-c2ccc3c(cnn3CCNC[C@@H](O)CC(=O)O)c2)c1C [Example 209]    73
4. COc1nc(O[C@H]2CCc3c(-c4cccc(-c5ccc(CNC[C@@H]6CCC(=O)N6)c(Cl)c5)c4Cl)cccc32)c(Br)cc1CNC[C@@H]1CCC(=O)N1 [Example 791]    175
5. C[C@@](CO)(NCc1cc(Cl)c(OCc2cccc(-c3cccc(-c4ccc(OCCNCCO)cc4)c3Cl)c2Cl)nc1OCc1cncc(C#N)c1)C(=O)O [Example 340]    217
